Where these numbers come from: ChEMBL document CHEMBL1140410

- MEASUREMENT_TARGET: Coagulation factor X (Homo sapiens, UniProt P00742)
- Sequence (P00742 41-179 limits assumed): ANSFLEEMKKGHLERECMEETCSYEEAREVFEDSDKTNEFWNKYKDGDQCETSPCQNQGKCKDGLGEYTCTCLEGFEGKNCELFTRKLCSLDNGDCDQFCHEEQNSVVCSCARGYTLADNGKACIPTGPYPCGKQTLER
- Sequence (P00742 235-488 limits assumed): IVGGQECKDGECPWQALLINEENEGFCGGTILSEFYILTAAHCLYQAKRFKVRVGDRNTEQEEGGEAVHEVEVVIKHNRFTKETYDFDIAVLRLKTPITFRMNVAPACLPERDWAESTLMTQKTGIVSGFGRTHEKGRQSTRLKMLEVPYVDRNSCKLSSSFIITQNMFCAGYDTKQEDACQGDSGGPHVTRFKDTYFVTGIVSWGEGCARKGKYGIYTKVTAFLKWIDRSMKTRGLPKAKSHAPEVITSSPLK
- ASSAY_NAME: In vitro inhibitory concentration of compound required to double the time to fibrin formation upon incubation with human plasma for 10 minutes at 37 degrees C
- Format: functional, cell-free
QUANTITY: Concentration (µM)
Your answer is read as µM, so omit the unit and give the number.

get_value(item= `Nc1cc(N2C[C@H](CNC(=O)c3ccc(Cl)s3)OC2=O)ccc1N1CCOCC1=O` , readout=Concentration) returns 0.3

The reported value for `O=C(NC[C@H]1CN(c2ccc(N3CCOCC3=O)c(C(F)(F)F)c2)C(=O)O1)c1ccc(Cl)s1` in terms of Concentration is 0.26

Short answer for `O=C(NC[C@H]1CN(c2ccc(N3CCOCC3=O)c(F)c2)C(=O)O1)c1ccc(Cl)s1` : Concentration was 0.17

Concentration reading for `O=C(NC[C@H]1CN(c2ccc(N3CCOCC3=O)cc2)C(=O)O1)c1ccc(Cl)s1` : 0.23

* * *

- Species on record: Rattus norvegicus
- ASSAY_NAME: In vitro inhibitory concentration of compound required to double the time to fibrin formation upon incubation with rat plasma for 10 minutes at 37 degrees C
- Assay type: functional
Please provide measured Concentration for the entries that follow.
Answer shape: numeric part, then the unit.

// sample `O=C(NC[C@H]1CN(c2ccc(N3CCOCC3=O)c(F)c2)C(=O)O1)c1ccc(Cl)s1` , its Concentration was 0.32 µM

The recorded Concentration for entry `Nc1cc(N2C[C@H](CNC(=O)c3ccc(Cl)s3)OC2=O)ccc1N1CCOCC1=O` equals 0.49 µM

O=C(NC[C@H]1CN(c2ccc(N3CCOCC3=O)cc2)C(=O)O1)c1ccc(Cl)s1 [RIVAROXABAN] yielded Concentration of 0.3 µM

Sure, the documented Concentration for `O=C(NC[C@H]1CN(c2ccc(N3CCOCC3=O)c(C(F)(F)F)c2)C(=O)O1)c1ccc(Cl)s1` is 0.32 µM

For `O=C(NC[C@H]1CN(c2ccc(N3CCCC3=O)cc2)C(=O)O1)c1ccc(Cl)s1` the compound record lists Concentration as 2.8 µM

* * *

- ASSAY_NAME: Fraction of unbound compound in female Beagle dog plasma
- Format: ADME, cell-free, Canis lupus familiaris
- ASSAY_SETUP: read-out: Fraction free drug in plasma
QUANTITY: fraction unbound
Provide a numeric answer; units are not to be included.

Short answer for O=C(NC[C@H]1CN(c2ccc(N3CCOCC3=O)cc2)C(=O)O1)c1ccc(Cl)s1 [RIVAROXABAN] : fraction unbound was 0.104

* * *

- ASSAY_NAME: Half-life after intravenous administration to rats
- Type: ADME, organism-based
- ASSAY_SETUP: rat, in vivo
QUANTITY: half-life

Value of measured half-life for the entry `O=C(NC[C@H]1CN(c2ccc(N3CCOCC3=O)c(F)c2)C(=O)O1)c1ccc(Cl)s1` : 18 min

So, `O=C(NC[C@H]1CN(c2ccc(N3CCCC3=O)cc2)C(=O)O1)c1ccc(Cl)s1` ? Its half-life was 66 min
